Test: Pharmacokinetic study in mice
Type: in vivo
Settings: male, BALB/cAnC, mouse, plasma, po admin 10 mg/kg
Readout Label: Tmax (min)

compound="COc1cccc(CC(=O)N[C@@H](Cc2ccc(C(F)(F)F)cc2)Cc2nnn[nH]2)c1 [Compound 16l]" readout_label=Tmax scale_unit=min observed_value=30

----------
Biological target: human FFA2-eYFP (Homo sapiens, UniProt O15552)
Construct: expressed in transfected cells; host or cells: membranes of Flp-In T-Rex 293 cells induced to express the construct
Sequence (O15552 whole entry): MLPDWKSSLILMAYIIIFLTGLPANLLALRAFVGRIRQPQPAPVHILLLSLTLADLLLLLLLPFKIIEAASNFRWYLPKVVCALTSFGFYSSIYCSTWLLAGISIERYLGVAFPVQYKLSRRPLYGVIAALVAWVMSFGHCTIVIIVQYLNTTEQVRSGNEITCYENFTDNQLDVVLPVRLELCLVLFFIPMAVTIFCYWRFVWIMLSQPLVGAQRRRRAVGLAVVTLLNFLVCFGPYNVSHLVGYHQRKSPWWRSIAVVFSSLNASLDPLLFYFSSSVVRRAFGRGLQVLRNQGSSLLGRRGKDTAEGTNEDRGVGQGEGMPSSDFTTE
Assay: [35S]GTPγS incorporation assay, membranes of Flp-In T-Rex 293 cells
Type: biochemical
Conditions: pIC50, GTPγS – ClogP
Collected LLEGTPγS values appear next to each entry.
Readout Label: LLEGTPγS

compound="O=C(Cc1ccccc1)N[C@@H](Cc1ccc(C(F)(F)F)cc1)Cc1nnn[nH]1 [Compound 16a]" observed_value=5.80
compound="O=C(Cc1ccc(Cl)nc1)N[C@@H](Cc1ccc(C(F)(F)F)cc1)Cc1nnn[nH]1 [Compound 16v]" observed_value=5.42
compound="O=C(Cc1cccc(F)c1)N[C@@H](Cc1ccccc1)Cc1nnn[nH]1 [Compound 16d]" observed_value=5.65

This collection of values is drawn from paper PMC10547238.
